// each record: one item and its AC50 for Melanocortin receptor 4 (Homo sapiens, UniProt P32245)

Some solved entries appear below for comparison.
compound: CC1(C)O[C@@H]2C[C@H]3[C@@H]4CCC5=CC(=O)C=C[C@]5(C)[C@H]4[C@@H](O)C[C@]3(C)[C@]2(C(=O)CO)O1 [DESONIDE]
AC50: > 10 µM
//
compound: O=C(O[C@H]1C[C@H]2CC[C@@H](C1)[N+]21CCCC1)C(O)(c1ccccc1)c1ccccc1
AC50: > 30 µM
//
compound: CN1CCC(=C2c3ccccc3CCc3sccc32)CC1
AC50: > 30 µM

Test item O=C(O)C[C@H](O)C[C@H](O)/C=C/c1c(C2CC2)nc2ccccc2c1-c1ccc(F)cc1 ; Melanocortin receptor 4 (Homo sapiens, UniProt P32245); reported AC50 was > 10 µM

* * *

target.under.test: Progesterone receptor (Homo sapiens, UniProt P06401); further: assay procedure not described here
Sequence (P06401 whole entry): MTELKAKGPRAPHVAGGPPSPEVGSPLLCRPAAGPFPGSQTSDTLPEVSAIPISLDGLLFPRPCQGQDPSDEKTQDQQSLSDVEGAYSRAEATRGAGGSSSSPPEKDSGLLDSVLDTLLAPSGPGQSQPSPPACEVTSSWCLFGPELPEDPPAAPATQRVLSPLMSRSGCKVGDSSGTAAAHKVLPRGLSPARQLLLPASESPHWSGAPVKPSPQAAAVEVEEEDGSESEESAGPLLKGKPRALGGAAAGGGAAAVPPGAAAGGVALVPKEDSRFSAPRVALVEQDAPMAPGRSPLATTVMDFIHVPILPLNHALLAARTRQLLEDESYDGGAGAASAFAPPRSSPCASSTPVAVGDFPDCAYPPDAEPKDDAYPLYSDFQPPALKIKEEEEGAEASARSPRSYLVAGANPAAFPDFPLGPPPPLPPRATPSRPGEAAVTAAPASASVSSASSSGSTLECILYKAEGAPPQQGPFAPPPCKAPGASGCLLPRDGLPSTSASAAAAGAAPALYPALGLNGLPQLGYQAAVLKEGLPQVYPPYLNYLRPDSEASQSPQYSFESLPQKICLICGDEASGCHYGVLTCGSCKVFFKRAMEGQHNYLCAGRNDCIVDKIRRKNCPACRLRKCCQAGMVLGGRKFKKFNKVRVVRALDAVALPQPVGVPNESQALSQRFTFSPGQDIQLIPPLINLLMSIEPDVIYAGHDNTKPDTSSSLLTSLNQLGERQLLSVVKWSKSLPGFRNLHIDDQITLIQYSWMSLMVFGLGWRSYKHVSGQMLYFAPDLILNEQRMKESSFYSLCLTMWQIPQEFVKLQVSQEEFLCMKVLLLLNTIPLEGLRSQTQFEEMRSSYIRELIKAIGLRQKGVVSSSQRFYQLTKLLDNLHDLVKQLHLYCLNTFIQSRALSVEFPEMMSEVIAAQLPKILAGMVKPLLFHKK
Documented AC50 across a set of molecules

Consider the worked cases shown below.
molecule: N=c1ccn2c(n1)O[C@H]1[C@H](O)[C@@H](CO)O[C@H]12
target.under.test: Progesterone receptor (Homo sapiens, UniProt P06401); further: assay procedure not described here
AC50: > 30 µM
//
molecule: Nc1ccncc1N
target.under.test: Progesterone receptor (Homo sapiens, UniProt P06401); further: assay procedure not described here
AC50: > 30 µM
//
molecule: OC[C@@H](O)[C@H](O)[C@@H](O)CO
target.under.test: Progesterone receptor (Homo sapiens, UniProt P06401); further: assay procedure not described here
AC50: > 30 µM
//
molecule: CC1(C)NC(=O)N(c2ccc([N+](=O)[O-])c(C(F)(F)F)c2)C1=O [NILUTAMIDE]
target.under.test: Progesterone receptor (Homo sapiens, UniProt P06401); further: assay procedure not described here
AC50: 12.7 µM
//
molecule: Nc1ccc2cc3ccc(N)cc3nc2c1
target.under.test: Progesterone receptor (Homo sapiens, UniProt P06401); further: assay procedure not described here
AC50: > 30 µM

Record O=c1[nH]c(=O)n([C@H]2C[C@H](O)[C@@H](CO)O2)cc1F ; system Progesterone receptor (Homo sapiens, UniProt P06401); AC50 = > 30 µM

Progesterone receptor (Homo sapiens, UniProt P06401) assay, molecule CS(=O)(=O)c1ccc(C2=C(c3ccccc3)C(=O)OC2)cc1 , recorded AC50 = > 30 µM

Note to self: AC50 of O=c1[nH]c(=O)n(C2CCCO2)cc1F (stereo not drawn) with Progesterone receptor (Homo sapiens, UniProt P06401) was > 30 µM

Progesterone receptor (Homo sapiens, UniProt P06401) assay, molecule CCCNC(C)C(=O)Nc1c(C)csc1C(=O)OC (stereo not drawn) , recorded AC50 = > 30 µM

Measured AC50 for this entry CC(CNC(=O)c1ccccc1)C(=O)OCC(=O)[C@@]12OC(C)(C)O[C@@H]1C[C@H]1[C@@H]3CCC4=CC(=O)C=C[C@]4(C)[C@@]3(F)[C@@H](O)C[C@@]12C (stereo partly drawn) [TRIAMCINOLONE BENETONIDE] on Progesterone receptor (Homo sapiens, UniProt P06401): > 30 µM

Measured values drawn from ChEMBL document CHEMBL5291721 for this set.
